As shown below, each of these compounds has a reported FP signal value.
Target: Hsp90 in C. albicans (SC5314) lysate (Candida albicans, UniProt P46598)
Construct: endogenous in cells; host or cells: C. albicans SC5314 whole-cell lysate
Sequence (P46598 whole entry): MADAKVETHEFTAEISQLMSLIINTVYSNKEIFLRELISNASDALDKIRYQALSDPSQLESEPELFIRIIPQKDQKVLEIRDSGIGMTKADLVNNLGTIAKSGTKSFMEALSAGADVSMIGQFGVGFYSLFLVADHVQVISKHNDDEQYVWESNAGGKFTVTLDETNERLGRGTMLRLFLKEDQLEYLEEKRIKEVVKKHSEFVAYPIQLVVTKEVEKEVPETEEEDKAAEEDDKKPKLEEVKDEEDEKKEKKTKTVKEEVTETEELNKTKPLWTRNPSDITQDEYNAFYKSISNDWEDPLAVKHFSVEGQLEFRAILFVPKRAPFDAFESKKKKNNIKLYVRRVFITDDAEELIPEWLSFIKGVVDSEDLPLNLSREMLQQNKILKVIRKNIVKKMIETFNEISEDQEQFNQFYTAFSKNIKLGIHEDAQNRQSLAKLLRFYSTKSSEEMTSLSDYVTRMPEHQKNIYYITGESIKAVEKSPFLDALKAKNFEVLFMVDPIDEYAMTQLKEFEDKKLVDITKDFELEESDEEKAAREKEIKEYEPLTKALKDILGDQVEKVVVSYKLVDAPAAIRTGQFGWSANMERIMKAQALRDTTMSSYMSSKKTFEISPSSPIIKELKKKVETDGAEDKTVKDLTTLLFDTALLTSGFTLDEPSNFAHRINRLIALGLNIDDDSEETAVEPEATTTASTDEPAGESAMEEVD
Test: biochemical
Type: binding
Details: SC5314 lysate, 1000 nM compound, raw
METRIC NAME: FP signal

>>> endpoint_value("CC1CC2OC2C=CC=CC(=NOCc2cccc(F)c2)Cc2c(Cl)c(O)cc(O)c2C(=O)O1 (mixture of isomers)")
56
>>> endpoint_value("COc1ccc(CON=C2C=CC=CC3OC3CC(C)OC(=O)c3c(O)cc(O)c(Cl)c3C2)cc1 (mixture of isomers)")
116
>>> endpoint_value("COC1=C2C[C@@H](C)C[C@H](OC)[C@H](O)[C@@H](C)/C=C(\\C)[C@H](OC(N)=O)[C@@H](OC)/C=C\\C=C(/C)C(=O)NC(=CC1=O)C2=O [geldanamycin, reference compound]")
30
